The origin of these recorded values is PubChem BioAssay (NCI).

Exercise: for every item that follows, state its recorded TGI.
system: RXF 393 renal; assay: NCI tumour cell line growth inhibition, 48 h
Give bare numbers, in µM.

Use these answered entries as a reference point.
compound | TGI (µM)
COc1ccc2[nH]c3c(C)cc([N+](=O)[O-])c(C)c3c2c1 | 41.9
CCOC(=O)C1([Se]c2ccccc2)CCCC1=O (stereo unspecified) | 21.3
CCOC(=O)/C=C/C(=O)[C@H](CC(C)C)NC(=O)[C@H](Cc1ccccc1)NC(=O)OCc1ccccc1 | 3.64
CN(C)CCNC(=O)c1cccc2ccc(-c3ccc(-c4ccccc4)cc3)nc12 | 6.15
N#CN1CC[C@H](C(=O)Nc2cc3cc(C(N)=O)ccc3cn2)C1 | 0.21

Below are 3 compounds. Give each one its TGI.
1. COc1ccc2c3c1OC1C34CCN(C)C(C2)C4=CC(I)C1(OC)OC (stereo unspecified)
2. C=C1C(=O)O[C@H]2[C@H]1CC/C(COC(=O)NCCc1c[nH]c3ccc(Cl)cc13)=C\CC[C@@]1(C)O[C@@H]21
3. O=S(=O)(Nc1ccc(F)c(Cl)c1)c1ccc(-c2cnc(C3CC3)o2)cc1

1: 23.1; 2: 2.94; 3: 1.28

Parameters: items (list). Returns: TGI for each item.
1. O=C1c2ccccc2C(=O)c2sc(Nc3ccccc3Cl)nc21
2. O=c1cc(-c2ccccc2)oc2cc(OC/C(=N/O)c3ccc(F)cc3)ccc12
3. CN1CCN(Cc2ccc3c(NNC(=O)c4ccccc4)nc4cc(F)ccc4n23)CC1
4. Cc1ccc(NCCN(C)C)c2c(=O)c3ccccc3sc12
5. O=C(Nc1ccccc1O)c1ccc(NS(=O)(=O)c2cccc3cccnc23)cc1
6. C[C@@H]1COCCN1c1cc(C2([S@@](C)(=N)=O)CC2)nc(-c2ccnc3[nH]ccc23)n1

30
40.2
21.3
4.59
5.81
9.68

For every record below, what is its TGI?
1. COc1ccc(N(/C=C/C(=O)C(F)(F)F)CC(=O)c2ccc(Cl)cc2)cc1
2. c1ccc(P(=C2c3ccccc3-c3ccccc32)(c2ccccc2)c2ccccc2)cc1
3. NC(=S)N=Nc1c(O)c2ccccc2c2ccccc12
4. Cc1c(C(N)=O)sc2c1c(=O)n(Cc1ccccc1)c1nnc(-c3ccc(Br)cc3)n21

1: 48.5; 2: 93.8; 3: 44.7; 4: 7.15

====

tested on: UACC-257 melanoma; assay: NCI tumour cell line growth inhibition, 48 h; in the data active means GI50 below about 0.43 µM; inactive means the rest
Pick one: active, inactive

Solved cases (5 shown):
compound | assayed.system | classification
COc1ccccc1NS(=O)(=O)c1ccc2oc(SC(C)C)nc2c1 | UACC-257 melanoma | inactive
N#CN1CC[C@H](C(=O)Nc2cc3cc(C(N)=O)ccc3cn2)C1 | UACC-257 melanoma | active
COc1ccc(Cn2cc3c(c2-c2ccccc2)CCc2cnoc2-3)cc1N | UACC-257 melanoma | inactive
O=C(NCc1ccco1)c1cccc(NC2=C(Cl)C(=O)N(Cc3ccccc3)C2=O)c1 | UACC-257 melanoma | inactive
COc1cccc(C2C3=C(COC3=O)N(CCO)c3cc4c(cc32)OCO4)c1 (stereo unspecified) | UACC-257 melanoma | active

Then there is this compound:
Give the logged outcome of this assay for the following compound: c1ccc([As]=[As]c2ccccc2)cc1 (stereo unspecified)
inactive

====

tested on: HCT-116 colon; test: NCI tumour cell line growth inhibition, 48 h
readout.label: GI50

# count of solved cases: 8
molecule | assayed.system | GI50
Cc1ccc(-c2nc([P+](c3ccccc3)(c3ccccc3)c3ccccc3)c(Nc3ccccc3)o2)cc1 | HCT-116 colon | 0.265 µM
Nc1ccccc1C#C/C=C\C#Cc1c(F)c(F)c(F)c(F)c1F | HCT-116 colon | 16 µM
COc1ccc(C(CC(=O)c2ccccc2)C(C(=O)c2ccccc2)C(c2ccc(OC)cc2)C2C(=O)NC(=S)NC2=O)cc1 (stereo unspecified) | HCT-116 colon | 15.4 µM
Cc1ccc(NCCN(C)C)c2c(=O)c3ccccc3sc12 | HCT-116 colon | 1.47 µM
Cc1ccc(-c2nc(-c3cn(C)c4ncccc34)cs2)cc1 | HCT-116 colon | 3.11 µM
Cc1c(C(N)=O)sc2c1c(=O)n(Cc1ccccc1)c1nnc(-c3ccc(Br)cc3)n21 | HCT-116 colon | 1.75 µM
COc1ccc(/C=C\c2cc(OC)c(OC)c(OC)c2)cc1OCC(=O)Nc1ccc2nc(C)sc2c1 | HCT-116 colon | 3.57 µM
CCCCCCCC(=O)OCC(=O)[C@]1(O)Cc2c(O)c3c(c(O)c2[C@@H](OC2CC(N)C(O)C(C)O2)C1)C(=O)c1c(OC)cccc1C3=O (stereo partly specified) | HCT-116 colon | 0.0742 µM

Batch request: GI50 per item, same order as input.
1. N#Cc1c(N)nc(NCc2ccccc2)c(C#N)c1-c1ccc(Cl)cc1Cl
2. CC1=C(C)C2(O)C(=C(C)C1=O)/C(=C(/O)c1ccccc1)c1nc3ccccc3n12 (stereo unspecified)
3. COc1ccc(C2C=C(c3ccc(Cl)cc3)N=C3SC=C(C)N32)c(Br)c1 (stereo unspecified)

> 100 µM
29.4 µM
2.58 µM

====

system: HCC-2998 colon; test: NCI tumour cell line growth inhibition, 48 h; in the data active = GI50 below about 0.43 µM; inactive = the rest
Mark one answer only. Choices: label 1 (active), label 0 (inactive)

Reference set (5 entries):
molecule | assayed.system | classification
CCCCCCCC(=O)OCC(=O)[C@]1(O)Cc2c(O)c3c(c(O)c2[C@@H](OC2CC(N)C(O)C(C)O2)C1)C(=O)c1c(OC)cccc1C3=O (some centres not stated) | HCC-2998 colon | label 1
COc1ccc(C2C=C(c3ccc(Cl)cc3)N=C3SC=C(C)N32)c(Br)c1 (configuration not stated) | HCC-2998 colon | label 0
O=C(CC(=O)c1cccc(Cl)c1)c1cccc(Cl)c1 | HCC-2998 colon | label 0
CN1CCN(Cc2ccc3c(NNC(=O)c4ccccc4)nc4cc(F)ccc4n23)CC1 | HCC-2998 colon | label 0
C#COc1cccc(Nc2ncnc3cc(NC(=O)[C@H](C)Cl)ccc23)c1 | HCC-2998 colon | label 0

Could you kindly confirm the outcome this assay logged for Nc1nc(=O)n([C@@H]2CS[C@H](CO)O2)cc1F ?
label 0

Hello, I am checking results. What call was entered for O=c1cc(-c2ccccc2)oc2cc(OC/C(=N/O)c3ccc(F)cc3)ccc12 ?
label 0

====

tested on: KM12 colon; assay: NCI tumour cell line growth inhibition, 48 h; in the data active means GI50 below about 0.43 µM; inactive means the rest
Pick from active, inactive when you respond.

The examples below pair each entry with its known result.
compound | classification
Cc1cnc(Nc2ccc(N3CCN(C)CC3)cc2)nc1Nc1ccc(Cl)c(NS(=O)(=O)C(C)(C)C)c1 | active
CC1=C[C@H]2C[C@H](C)[C@H]3CC[C@H](C)[C@]4(C1)C(=O)C(O)=C(C)C(=O)[C@@]324 | inactive

Write down the call the test reported for this compound. Item: CCCCCCCC(=O)OCC(=O)[C@]1(O)Cc2c(O)c3c(c(O)c2[C@@H](OC2CC(N)C(O)C(C)O2)C1)C(=O)c1c(OC)cccc1C3=O (stereo partly specified)
active

Each compound tested received a call. Report the one for Nc1ccccc1C#C/C=C\C#Cc1c(F)c(F)c(F)c(F)c1F .
inactive

Outcome logged for CN(C)c1ccc(/C=c2/c3ccccc3n3c2c2cc(F)ccc2[n+]3C)cc1 in this assay:
inactive

For this compound, state the assay outcome: N#Cc1c(N)nc(NCc2ccccc2)c(C#N)c1-c1ccc(Cl)cc1Cl
inactive

For O=c1cc(-c2ccccc2)oc2cc(OC/C(=N/O)c3ccc(F)cc3)ccc12 , what call appears in the results of this test?
inactive

====

test system: OVCAR-3 ovarian; assay: NCI tumour cell line growth inhibition, 48 h
Can you tell me TGI for the items I'm about to list?

compound | readout.label | experimental.result
CCS(=O)(=O)c1ccc(OC)c(Nc2ncc(-c3ccccc3Cl)o2)c1 | TGI | > 25 µM
CCn1c(=O)c2nc(SC)sc2n(-c2ccccc2)c1=O | TGI | > 100 µM
CC(CN(C)C)C(=O)c1ccccc1 (configuration not stated) | TGI | 97.8 µM
COc1nc2c(c(=O)n1C)N=C(c1ccc(Cl)cc1)CC(c1ccccc1)N2 (configuration not stated) | TGI | > 100 µM
Cc1nc2sccn2c1C(=O)NC(=O)Nc1ccc(Cl)cc1 | TGI | > 100 µM

Dear colleague, could you please provide TGI for the compounds listed below?
1. CC(C)/C(=N\[N+](C)(C)C)c1ccccc1
2. O=C1c2ccccc2C(=O)c2c(NCC3CO3)ccc(NCC3CO3)c21 (configuration not stated)
3. NC(=O)c1c(NC=O)ncn1C1OCC(O)C(O)C1O (configuration not stated)

1: > 100 µM; 2: 15.1 µM; 3: > 100 µM

List the reported TGI of each compound below.
1. COc1ccccc1NS(=O)(=O)c1ccc2oc(SC(C)C)nc2c1
2. COc1ccc(C2C3CCCC(C3=O)C(c3ccc(OC)cc3)N2N=O)cc1 (configuration not stated)
3. CN(C)c1ccc(C(c2ccc(Cl)cc2)c2ccc(N(C)C)cc2)cc1

40.4 µM
20 µM
> 100 µM

get_value(item= C=CCOC(=O)C1CCC(=O)N1C(=O)C(Cl)Cl (configuration not stated) , readout=TGI) returns > 100 µM
